- target-of-assay: HMG-CoA reductase of rat's liver microsome (Rattus norvegicus)
- Construct: from tissue; host or cells: liver microsomes of male Sprague-Dawley rats fed 5% cholestyramine diet for 5 days
- Sequence (P51639 1-887): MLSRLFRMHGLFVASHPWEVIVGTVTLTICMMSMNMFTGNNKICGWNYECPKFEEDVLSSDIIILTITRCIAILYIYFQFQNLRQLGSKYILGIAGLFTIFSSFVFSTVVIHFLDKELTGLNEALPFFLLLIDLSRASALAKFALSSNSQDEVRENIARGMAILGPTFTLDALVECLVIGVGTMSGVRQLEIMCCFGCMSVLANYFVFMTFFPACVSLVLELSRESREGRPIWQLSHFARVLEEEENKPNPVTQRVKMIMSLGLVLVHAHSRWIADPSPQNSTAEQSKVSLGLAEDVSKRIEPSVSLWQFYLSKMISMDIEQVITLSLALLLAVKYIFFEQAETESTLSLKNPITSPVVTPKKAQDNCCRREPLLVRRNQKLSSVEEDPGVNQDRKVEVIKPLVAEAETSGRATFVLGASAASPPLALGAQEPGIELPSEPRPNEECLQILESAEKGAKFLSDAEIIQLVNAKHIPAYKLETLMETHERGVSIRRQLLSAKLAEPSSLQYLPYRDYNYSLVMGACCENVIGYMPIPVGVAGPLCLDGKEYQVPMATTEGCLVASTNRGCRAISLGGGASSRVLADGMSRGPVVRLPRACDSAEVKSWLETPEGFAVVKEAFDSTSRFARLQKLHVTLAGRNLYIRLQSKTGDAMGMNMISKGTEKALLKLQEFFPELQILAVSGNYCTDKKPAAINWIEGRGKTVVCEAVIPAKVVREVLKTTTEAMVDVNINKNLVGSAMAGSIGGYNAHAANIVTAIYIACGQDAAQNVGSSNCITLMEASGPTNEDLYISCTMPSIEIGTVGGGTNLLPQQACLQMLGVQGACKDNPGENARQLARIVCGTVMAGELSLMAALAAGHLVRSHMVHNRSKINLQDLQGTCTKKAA
- run-description: Inhibitory action for HMG-CoA reductase of rat's liver microsome
- Type: biochemical, male Sprague-Dawley rats
- condition-set: 0.5 h; at 10-^6 M; rat liver microsome (cholestyramine-fed), d,l-[3-^14 C]-HMG-CoA 0.5 mM, NADPH 20 mM, 37° C. 30 minutes
quantity: inhibition at 1 µM (%)

{"columns": ["molecule", "data-value"],
 "data": [
  ["O=C(O)C[C@H](O)C[C@H](O)/C=C/c1c(-c2ccc(F)cc2)n(CCc2ccc(F)cc2)c(=O)c2ccccc12 (relative stereo)", 96.9],
  ["CCCn1c(-c2ccc(F)cc2)c(/C=C/[C@@H](O)C[C@@H](O)CC(=O)O)c2ccccc2c1=O (relative stereo) [Example 16-2]", 96.2],
  ["CC(C)Cn1c(-c2ccc(F)cc2)c(/C=C/[C@@H](O)C[C@@H](O)CC(=O)O)c2ccccc2c1=O (relative stereo)", 95],
  ["CSCCn1c(-c2ccc(F)cc2)c(/C=C/[C@@H](O)C[C@@H](O)CC(=O)O)c2ccccc2c1=O (relative stereo)", 94.1],
  ["CCn1c(-c2ccc(F)cc2)c(/C=C/[C@@H](O)C[C@@H](O)CC(=O)O)c2ccccc2c1=O (relative stereo)", 96.1],
  ["CCCn1c(-c2ccc(F)cc2)c(/C=C/[C@@H](O)C[C@@H](O)CC(=O)OCC)c2ccccc2c1=O (relative stereo)", 94.2],
  ["CCCn1c(-c2ccc(F)cc2)c(/C=C/[C@@H]2C[C@@H](O)CC(=O)O2)c2ccccc2c1=O", 92.5],
  ["COC(=O)C[C@H](O)C[C@H](O)/C=C/c1c(-c2ccc(F)cc2)n(CCc2ccccc2)c(=O)c2ccccc12 (relative stereo)", 89.6],
  ["COc1ccc(CCn2c(-c3ccc(F)cc3)c(/C=C/[C@@H](O)C[C@@H](O)CC(=O)O)c3ccccc3c2=O)cc1 (relative stereo)", 96.2]
]}
